I'd appreciate it if you could supply MIC values for the items below.
# Tested on: gram positive bacteria
# Measurement notes: In vitro anti-bacterial activity assay (broth dilution MIC), gram positive bacteria
# Assay type: cell-based, S. aureus
# Applied conditions: Staphylococcus aureus, 18 h, S. aureus MRSA5; read-out: Median MIC's G+ S. aureus MRSA5
Hi, when you answer, please include the unit after the number. Thanks!

(Q) Quick one: MIC for `CN(C)[C@@H]1C(O)=C(C(N)=O)C(=O)[C@@]2(O)C(O)=C3C(=O)c4c(O)ccc(-c5cccc(/C=C/C#N)c5)c4C[C@H]3C[C@@H]12` ?
(A) 0.5 µg/mL

(Q) Lookup `CC(C)N(C)CC(=O)c1ccc(O)c2c1C[C@H]1C[C@H]3[C@H](N(C)C)C(O)=C(C(N)=O)C(=O)[C@@]3(O)C(O)=C1C2=O`
(A) 0.5 µg/mL

(Q) Lookup `CN(C)[C@@H]1C(O)=C(C(N)=O)C(=O)[C@@]2(O)C(O)=C3C(=O)c4c(O)ccc(-c5coc(CN6CCCCC6)c5)c4C[C@H]3C[C@@H]12`
(A) 1 µg/mL

(Q) Lookup CN(C)[C@H]1C(O)=C(C(N)=O)C(=O)[C@@]2(O)C(O)=C3C(=O)c4c(O)ccc(-c5cccc(C(N)=O)c5)c4C[C@H]3C[C@@H]12 (stereo in doubt)
(A) 64 µg/mL

(Q) Lookup CO/N=C/c1ccc(-c2ccc(O)c3c2C[C@H]2C[C@H]4[C@H](N(C)C)C(O)=C(C(N)=O)C(=O)[C@@]4(O)C(O)=C2C3=O)o1 (stereo in doubt)
(A) 1 µg/mL

(Q) Lookup `CN(C)[C@@H]1C(O)=C(C(N)=O)C(=O)[C@@]2(O)C(O)=C3C(=O)c4c(O)ccc(-c5cccc(CCCN)c5)c4C[C@H]3C[C@@H]12`
(A) 64 µg/mL

====

# Test system: 3T3 fibroblast cells
# Measurement notes: In vitro phototoxicity assay (neutral red; UV light-treated vs dark control plates)
# Assay type: cell-based
# Applied conditions: UV light 50 minutes
I'd appreciate it if you could supply Photo Toxicity UV Tox50 values for the items below.

(Q) Quick one: Photo Toxicity UV Tox50 for `CN(Cc1cccnc1)Cc1cccc(-c2ccc(O)c3c2C[C@H]2C[C@H]4[C@H](N(C)C)C(O)=C(C(N)=O)C(=O)[C@@]4(O)C(O)=C2C3=O)c1` ?
(A) >122.6 µM

(Q) Lookup `CN(C)[C@@H]1C(O)=C(C(N)=O)C(=O)[C@@]2(O)C(O)=C3C(=O)c4c(O)ccc(C(=O)Cn5ccnc5)c4C[C@H]3C[C@@H]12`
(A) >161.01 µM

(Q) Lookup `CN(C)CCCNC(=O)c1ccc(-c2ccc(O)c3c2C[C@H]2C[C@H]4[C@H](N(C)C)C(O)=C(C(N)=O)C(=O)[C@@]4(O)C(O)=C2C3=O)o1`
(A) >200 µM

====

# Tested on: gram positive bacteria
# Measurement notes: In vitro anti-bacterial activity assay (broth dilution MIC), gram positive bacteria
# Assay type: cell-based, S. aureus
# Applied conditions: Staphylococcus aureus, 18 h, S. aureus MRSA5; read-out: Median MIC's G+ S. aureus MRSA5
Measurement type: log10(MIC) (log10 of the value in µg/mL)
Please interpret these as log10 of MIC where MIC is in µg/mL.

(Q) // fetch gram positive bacteria log10(MIC) for `CC(C)OC(=O)c1cccc(-c2ccc(O)c3c2C[C@H]2C[C@H]4[C@H](N(C)C)C(O)=C(C(N)=O)C(=O)[C@@]4(O)C(O)=C2C3=O)c1`
(A) 0.00

(Q) Lookup `CN(C)[C@@H]1C(O)=C(C(N)=O)C(=O)[C@@]2(O)C(O)=C3C(=O)c4c(O)ccc(-c5cccc(C(N)=O)c5)c4C[C@H]3C[C@@H]12`
(A) 0.60

(Q) Lookup `CN(C)CCN(C)C(=O)c1cccc(-c2ccc(O)c3c2C[C@H]2C[C@H]4[C@H](N(C)C)C(O)=C(C(N)=O)C(=O)[C@@]4(O)C(O)=C2C3=O)c1`
(A) 1.81

(Q) Lookup `CC1CCN(CC(=O)c2ccc(O)c3c2C[C@H]2C[C@H]4[C@H](N(C)C)C(O)=C(C(N)=O)C(=O)[C@@]4(O)C(O)=C2C3=O)CC1`
(A) -1.22

(Q) Lookup `CN(C)C(=O)c1cccc(-c2ccc(O)c3c2C[C@H]2C[C@H]4[C@H](N(C)C)C(O)=C(C(N)=O)C(=O)[C@@]4(O)C(O)=C2C3=O)c1`
(A) 1.20

(Q) Lookup COCCCNC(=O)c1cccc(-c2ccc(O)c3c2CC2CC4[C@H](N(C)C)C(O)=C(C(N)=O)C(=O)[C@@]4(O)C(O)=C2C3=O)c1 (some centres unmarked)
(A) 0.30

(Q) Lookup `COCCNC(=O)c1cccc(-c2ccc(O)c3c2C[C@H]2C[C@H]4[C@H](N(C)C)C(O)=C(C(N)=O)C(=O)[C@@]4(O)C(O)=C2C3=O)c1`
(A) 0.00

(Q) Lookup `CN(C)CCCCNCc1ccc(O)c2c1C[C@H]1C[C@H]3[C@H](N(C)C)C(O)=C(C(N)=O)C(=O)[C@@]3(O)C(O)=C1C2=O`
(A) 1.81

====

# System: 3T3 fibroblast cells
# Measurement notes: In vitro phototoxicity assay (neutral red; UV light-treated vs dark control plates)
# Format: cell-based
# Applied conditions: dark control plate
I'd appreciate it if you could supply Photo Toxicity Dark Tox50 values for the items below.

(Q) Quick one: Photo Toxicity Dark Tox50 for CN(C)[C@H]1C(O)=C(C(N)=O)C(=O)[C@@]2(O)C(O)=C3C(=O)c4c(O)ccc(-c5cccc(C(N)=O)c5)c4C[C@H]3C[C@@H]12 (stereo in doubt) [B] ?
(A) >156.64 µM

(Q) Lookup CN(C)CCCCNC(=O)c1cccc(-c2ccc(O)c3c2C[C@H]2C[C@H]4[C@H](N(C)C)C(O)=C(C(N)=O)C(=O)[C@@]4(O)C(O)=C2C3=O)c1 [CL]
(A) >134.63 µM

(Q) Lookup CCOC(=O)N1CCN(CC(=O)c2ccc(O)c3c2C[C@H]2C[C@H]4[C@H](N(C)C)C(O)=C(C(N)=O)C(=O)[C@@]4(O)C(O)=C2C3=O)CC1 [BR]
(A) >131.28 µM

(Q) Lookup CN(C)[C@@H]1C(O)=C(C(N)=O)C(=O)[C@@]2(O)C(O)=C3C(=O)c4c(O)ccc(-c5cccc(C(=O)NCCN)c5)c4C[C@H]3C[C@@H]12 [N]
(A) >150.87 µM

(Q) Lookup CN1CCN(CC(=O)c2ccc(O)c3c2C[C@H]2C[C@H]4[C@H](N(C)C)C(O)=C(C(N)=O)C(=O)[C@@]4(O)C(O)=C2C3=O)CC1 [BB]
(A) >135.54 µM

(Q) Lookup CN(C)[C@@H]1C(O)=C(C(N)=O)C(=O)[C@@]2(O)C(O)=C3C(=O)c4c(O)ccc(-c5cccc(/C=C/C#N)c5)c4C[C@H]3C[C@@H]12 [CO]
(A) >164.35 µM

(Q) Lookup COCCNCc1ccoc1-c1ccc(O)c2c1C[C@H]1C[C@H]3[C@H](N(C)C)C(O)=C(C(N)=O)C(=O)[C@@]3(O)C(O)=C1C2=O [BQ]
(A) >140.51 µM

(Q) Lookup CN(Cc1cccnc1)Cc1cccc(-c2ccc(O)c3c2C[C@H]2C[C@H]4[C@H](N(C)C)C(O)=C(C(N)=O)C(=O)[C@@]4(O)C(O)=C2C3=O)c1 [BJ]
(A) >122.6 µM

(Q) Lookup CN(C)CCCCNCc1ccc(O)c2c1C[C@H]1C[C@H]3[C@H](N(C)C)C(O)=C(C(N)=O)C(=O)[C@@]3(O)C(O)=C1C2=O [CN]
(A) >138.03 µM

(Q) Lookup COc1ccc(CN(C)C)cc1-c1ccc(O)c2c1C[C@H]1C[C@H]3[C@H](N(C)C)C(O)=C(C(N)=O)C(=O)[C@@]3(O)C(O)=C1C2=O [AT]
(A) >146.03 µM

====

# System: gram negative bacteria
# Measurement notes: In vitro anti-bacterial activity assay (broth dilution MIC), gram negative bacteria
# Type: cell-based, E. coli
# Applied conditions: Escherichia coli, 18 h, E. coli MG 1655; read-out: Median MIC's G− E. coli MG 1655
Mark Satisfied for MIC under 30 µg/mL, Not satisfied if at or over.

(Q) Bench note: check whether `CN(C)CCCCN(C)Cc1cccc(-c2ccc(O)c3c2C[C@H]2C[C@H]4[C@H](N(C)C)C(O)=C(C(N)=O)C(=O)[C@@]4(O)C(O)=C2C3=O)c1` shows MIC below 30 µg/mL
(A) Satisfied

(Q) Lookup `CN(C)[C@@H]1C(O)=C(C(N)=O)C(=O)[C@@]2(O)C(O)=C3C(=O)c4c(O)ccc(-c5cnc6ccccc6c5)c4C[C@H]3C[C@@H]12`
(A) Not satisfied

(Q) Lookup `CN(C)[C@@H]1C(O)=C(C(N)=O)C(=O)[C@@]2(O)C(O)=C3C(=O)c4c(O)ccc(-c5cccc(C(=O)NCCN6CCCC6)c5)c4C[C@H]3C[C@@H]12`
(A) Satisfied

(Q) Lookup `CN(C)CCCCNCc1ccc(O)c2c1C[C@H]1C[C@H]3[C@H](N(C)C)C(O)=C(C(N)=O)C(=O)[C@@]3(O)C(O)=C1C2=O`
(A) Not satisfied

(Q) Lookup `CC(=O)NCCNC(=O)c1cccc(-c2ccc(O)c3c2C[C@H]2C[C@H]4[C@H](N(C)C)C(O)=C(C(N)=O)C(=O)[C@@]4(O)C(O)=C2C3=O)c1`
(A) Not satisfied

(Q) Lookup `CN(C)[C@@H]1C(O)=C(C(N)=O)C(=O)[C@@]2(O)C(O)=C3C(=O)c4c(O)ccc(C(=O)CNCc5ccccn5)c4C[C@H]3C[C@@H]12`
(A) Not satisfied

(Q) Lookup `CN1CCN(Cc2cccc(-c3ccc(O)c4c3C[C@H]3C[C@H]5[C@H](N(C)C)C(O)=C(C(N)=O)C(=O)[C@@]5(O)C(O)=C3C4=O)c2)CC1`
(A) Satisfied

(Q) Lookup `CN(C)[C@@H]1C(O)=C(C(N)=O)C(=O)[C@@]2(O)C(O)=C3C(=O)c4c(O)ccc(-c5coc(CN6CCCCC6)c5)c4C[C@H]3C[C@@H]12`
(A) Satisfied

(Q) Lookup `CN(C)[C@@H]1C(O)=C(C(N)=O)C(=O)[C@@]2(O)C(O)=C3C(=O)c4c(O)ccc(-c5cccc(/C=C/C#N)c5)c4C[C@H]3C[C@@H]12`
(A) Not satisfied

(Q) Lookup `CCN(CC)CCNC(=O)c1cccc(-c2ccc(O)c3c2C[C@H]2C[C@H]4[C@@H](N(C)C)C(O)=C(C(N)=O)C(=O)[C@@]4(O)C(O)=C2C3=O)c1`
(A) Not satisfied

(Q) Lookup `CCN(CC)CCNC(=O)c1cccc(-c2ccc(O)c3c2C[C@H]2C[C@H]4[C@H](N(C)C)C(O)=C(C(N)=O)C(=O)[C@@]4(O)C(O)=C2C3=O)c1`
(A) Satisfied

(Q) Lookup `CN(C)[C@@H]1C(O)=C(C(N)=O)C(=O)[C@@]2(O)C(O)=C3C(=O)c4c(O)ccc(-c5cccc(CCCN)c5)c4C[C@H]3C[C@@H]12`
(A) Not satisfied

(Q) Lookup `CN(C)CCCNC(=O)c1ccc(-c2ccc(O)c3c2C[C@H]2C[C@H]4[C@H](N(C)C)C(O)=C(C(N)=O)C(=O)[C@@]4(O)C(O)=C2C3=O)o1`
(A) Not satisfied

(Q) Lookup `CNCCNC(=O)c1cccc(-c2ccc(O)c3c2C[C@H]2C[C@H]4[C@H](N(C)C)C(O)=C(C(N)=O)C(=O)[C@@]4(O)C(O)=C2C3=O)c1`
(A) Not satisfied

(Q) Lookup `CC(=O)Nc1cccc(-c2ccc(O)c3c2C[C@H]2C[C@H]4[C@H](N(C)C)C(O)=C(C(N)=O)C(=O)[C@@]4(O)C(O)=C2C3=O)c1`
(A) Not satisfied

(Q) Lookup `C=CCNCC(=O)c1ccc(O)c2c1C[C@H]1C[C@H]3[C@H](N(C)C)C(O)=C(C(N)=O)C(=O)[C@@]3(O)C(O)=C1C2=O`
(A) Satisfied

(Q) Lookup `CN(C)[C@@H]1C(O)=C(C(N)=O)C(=O)[C@@]2(O)C(O)=C3C(=O)c4c(O)ccc(-c5cccc(C(N)=O)c5)c4C[C@H]3C[C@@H]12`
(A) Satisfied

(Q) Lookup `CN(C)Cc1ccc(-c2ccc(O)c3c2C[C@H]2C[C@H]4[C@H](N(C)C)C(O)=C(C(N)=O)C(=O)[C@@]4(O)C(O)=C2C3=O)[nH]1`
(A) Satisfied

(Q) Lookup `CC1CCN(CC(=O)c2ccc(O)c3c2C[C@H]2C[C@H]4[C@H](N(C)C)C(O)=C(C(N)=O)C(=O)[C@@]4(O)C(O)=C2C3=O)CC1`
(A) Satisfied

(Q) Lookup `CN(C)CCNCc1ccc(-c2ccc(O)c3c2C[C@H]2C[C@H]4[C@H](N(C)C)C(O)=C(C(N)=O)C(=O)[C@@]4(O)C(O)=C2C3=O)o1`
(A) Satisfied

Just for reference, patent US20100022483A1 is where these values come from.
